# System: MCF-7 cancer cell line (human breast cancer cell line)
# procedure_summary: MTT cytotoxicity assay, MCF-7 cancer cell line
# Type: cell-based
# assay_setup: MCF7 cell line
measured_metric: EC50 (µM)
Give bare numbers, in µM.

Enquiry: Would you kindly share the measured EC50 for CCCCCc1cc(O)c(C/C=C(\C)CCC=C(C)C)c(O)c1C(=O)OC ?
Return: 18

----------
# Tested on: SK-BR-3 cancer cell line (human breast cancer cell line)
# procedure_summary: MTT cytotoxicity assay, SK-BR-3 cancer cell line
# Assay type: cell-based
# assay_setup: Homo sapiens, SK-BR-3; cancer cell line SKBR3; 72 h
# Source text: The cytotoxic activity of CBDA methyl esters, CBCA CBGA and THCA was studied by the in vitro MTT colorimetric process (Mosmann, T. et al. J. Immunol. Methods. 1983; 65: 55-63). This method, which is widely used to measure cellular metabolic activity as an indicator of cell viability, division and cytotoxicity, is based on the reduction of a yellow salt of tetrazole ((3-(4,5-dimethylthiazol-2-yl)-2). 5-diphenyltetrazolium bromide or MTT) in violet formazan crystals from metabolically active cells. […]
measured_metric: pEC50
One number for each entry, as −log10 of the molar value.

Enquiry: Would you kindly share the measured pEC50 for CCCCCc1cc(O)c(C/C=C(\C)CCC=C(C)C)c(O)c1 [CBG, cannabigerol, reference compound] ?
Return: 4.41
